Origin of measurements: ChEMBL document CHEMBL4304767

Tested system: Muscarinic acetylcholine receptor M2 (Homo sapiens)
Sequence (P08172 whole entry): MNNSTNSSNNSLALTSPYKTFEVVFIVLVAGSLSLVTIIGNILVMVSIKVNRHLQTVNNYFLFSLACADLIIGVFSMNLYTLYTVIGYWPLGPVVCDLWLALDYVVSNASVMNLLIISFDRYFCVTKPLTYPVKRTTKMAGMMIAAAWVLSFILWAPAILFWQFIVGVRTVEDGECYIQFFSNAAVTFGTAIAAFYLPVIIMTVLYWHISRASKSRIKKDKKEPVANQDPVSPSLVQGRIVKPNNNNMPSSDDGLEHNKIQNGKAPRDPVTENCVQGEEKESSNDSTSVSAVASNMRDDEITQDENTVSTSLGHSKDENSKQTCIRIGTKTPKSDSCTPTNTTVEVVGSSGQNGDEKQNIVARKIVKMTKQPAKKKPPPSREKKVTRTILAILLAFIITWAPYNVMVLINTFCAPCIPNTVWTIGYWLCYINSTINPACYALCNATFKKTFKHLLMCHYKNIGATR
Assay comment: Agonist activity at human Muscarinic acetylcholine receptor M2 expressed in HEK cells co-expressing Glosensor construct assessed as decrease in isoproterenol-induced cAMP accumulation at 10 uM to 0.3 nM incubated for 7 mins in presence of isoproterenol by Glosensor cAMP reagent/plate reader based luminescence assay relative to acetylcholine
Assay type: cell-based
Value type: Emax at 7 min (%)
Number in %, nothing else.

These solved cases illustrate the format of a correct answer.
[[record]]
compound = "COc1cccnc1C1CCN(C2CC3(CCN(c4cnccn4)C3)C2)CC1 (stereo unspecified)"
uom = "%"
test_value = 100

[[record]]
compound = "c1ccc(-n2ccnc2[C@@H]2[C@@H]3CN(C4CC5(CCN(c6cnccn6)C5)C4)C[C@@H]32)cc1 (stereo partly specified)"
uom = "%"
test_value = 79.4

[[record]]
compound = "COc1cccnc1C1CCN(C2CCCN(c3cnccn3)CC2)CC1 (stereo unspecified)"
uom = "%"
test_value = 104

[[record]]
compound = "CCOC(=O)N1CCCC(N2CCC(c3ncccc3OC)CC2)CC1 (stereo unspecified)"
uom = "%"
test_value = 83

[[record]]
compound = "COc1cccnc1C1CCN(CC2CCN(c3cnccn3)CC2)CC1"
uom = "%"
test_value = 102


Attention now turns to another entry.
Please report the recorded Emax at 7 min for CCOC(=O)N1CCC2(CC(N3C[C@@H]4[C@H](C3)[C@@H]4c3nccn3-c3ccccc3)C2)C1 (stereo partly specified) .
100
